STUDY_SYSTEM: pT7_6His-AlfaTag-HOXD13 (human, UniProt P35453 263-343)
Sequence (P35453 263-343): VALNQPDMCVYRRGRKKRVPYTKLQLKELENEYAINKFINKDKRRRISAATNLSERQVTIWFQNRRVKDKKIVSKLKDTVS
EXPERIMENT_SUMMARY: PADIT-seq
REPORTED_CONDITIONS: dsDNA, one strand shown
OBSERVATION_TYPE: binding signal (log2FC)

CHAIN: CTCGAGGATATCAAGATCTGGCCTCGGCGTTTTAAAGGGAACCTCTAGCTAGCCGACTCACTATAGGGATAATCGCCCTGAGCAAAGACC
STUDY_SYSTEM: pT7_6His-AlfaTag-HOXD13 (human, UniProt P35453 263-343)
OBSERVATION_TYPE: binding signal
READOUT_NUMBER: 2.48
--
CHAIN: CTCGAGGATATCAAGATCTGGCCTCGGCCGCCCATCCGGAACCTCTAGCTAGCCGACTCACTATAGGGATAATCGCCCTGAGCAAAGACC
STUDY_SYSTEM: pT7_6His-AlfaTag-HOXD13 (human, UniProt P35453 263-343)
OBSERVATION_TYPE: binding signal
READOUT_NUMBER: -1.06
--
CHAIN: CTCGAGGATATCAAGATCTGGCCTCGGCCGGCTAAAAGGAACCTCTAGCTAGCCGACTCACTATAGGGATAATCGCCCTGAGCAAAGACC
STUDY_SYSTEM: pT7_6His-AlfaTag-HOXD13 (human, UniProt P35453 263-343)
OBSERVATION_TYPE: binding signal
READOUT_NUMBER: -0.621
--
CHAIN: CTCGAGGATATCAAGATCTGGCCTCGGCCTAGTAAAAGGAACCTCTAGCTAGCCGACTCACTATAGGGATAATCGCCCTGAGCAAAGACC
STUDY_SYSTEM: pT7_6His-AlfaTag-HOXD13 (human, UniProt P35453 263-343)
OBSERVATION_TYPE: binding signal
READOUT_NUMBER: 2.42
--
CHAIN: CTCGAGGATATCAAGATCTGGCCTCGGCGTGATAAAAGGAACCTCTAGCTAGCCGACTCACTATAGGGATAATCGCCCTGAGCAAAGACC
STUDY_SYSTEM: pT7_6His-AlfaTag-HOXD13 (human, UniProt P35453 263-343)
OBSERVATION_TYPE: binding signal
READOUT_NUMBER: 1.99
--
CHAIN: CTCGAGGATATCAAGATCTGGCCTCGGCGCTCTAAAAGGAACCTCTAGCTAGCCGACTCACTATAGGGATAATCGCCCTGAGCAAAGACC
STUDY_SYSTEM: pT7_6His-AlfaTag-HOXD13 (human, UniProt P35453 263-343)
OBSERVATION_TYPE: binding signal
READOUT_NUMBER: 0.0795
--
CHAIN: CTCGAGGATATCAAGATCTGGCCTCGGCGCGATAAAAGGAACCTCTAGCTAGCCGACTCACTATAGGGATAATCGCCCTGAGCAAAGACC
STUDY_SYSTEM: pT7_6His-AlfaTag-HOXD13 (human, UniProt P35453 263-343)
OBSERVATION_TYPE: binding signal
READOUT_NUMBER: 1.22

----------
Each item that follows carries a reported binding signal.
STUDY_SYSTEM: pT7_6His-AlfaTag-HOXD13 (human, UniProt P35453 263-343)
EXPERIMENT_SUMMARY: PADIT-seq
REPORTED_CONDITIONS: dsDNA, one strand shown

CHAIN: CTCGAGGATATCAAGATCTGGCCTCGGCGCGTGGCGAGGAACCTCTAGCTAGCCGACTCACTATAGGGATAATCGCCCTGAGCAAAGACC
binding signal (log2FC): -0.862
//
CHAIN: CTCGAGGATATCAAGATCTGGCCTCGGCTTTTTACGCGGAACCTCTAGCTAGCCGACTCACTATAGGGATAATCGCCCTGAGCAAAGACC
binding signal (log2FC): 2.08
//
CHAIN: CTCGAGGATATCAAGATCTGGCCTCGGCTGTCTAAAAGGAACCTCTAGCTAGCCGACTCACTATAGGGATAATCGCCCTGAGCAAAGACC
binding signal (log2FC): -0.572
//
CHAIN: CTCGAGGATATCAAGATCTGGCCTCGGCTGACCACGCGGAACCTCTAGCTAGCCGACTCACTATAGGGATAATCGCCCTGAGCAAAGACC
binding signal (log2FC): -1.02
//
CHAIN: CTCGAGGATATCAAGATCTGGCCTCGGCGATCTAAAAGGAACCTCTAGCTAGCCGACTCACTATAGGGATAATCGCCCTGAGCAAAGACC
binding signal (log2FC): -0.592
//
CHAIN: CTCGAGGATATCAAGATCTGGCCTCGGCTTTTTAACCGGAACCTCTAGCTAGCCGACTCACTATAGGGATAATCGCCCTGAGCAAAGACC
binding signal (log2FC): 0.739
//
CHAIN: CTCGAGGATATCAAGATCTGGCCTCGGCCTTTTACGCGGAACCTCTAGCTAGCCGACTCACTATAGGGATAATCGCCCTGAGCAAAGACC
binding signal (log2FC): 1.9
//
CHAIN: CTCGAGGATATCAAGATCTGGCCTCGGCTTTTTAGTCGGAACCTCTAGCTAGCCGACTCACTATAGGGATAATCGCCCTGAGCAAAGACC
binding signal (log2FC): -0.553
//
CHAIN: CTCGAGGATATCAAGATCTGGCCTCGGCAGTCCACGCGGAACCTCTAGCTAGCCGACTCACTATAGGGATAATCGCCCTGAGCAAAGACC
binding signal (log2FC): -0.993
//
CHAIN: CTCGAGGATATCAAGATCTGGCCTCGGCGTTTTAGTTGGAACCTCTAGCTAGCCGACTCACTATAGGGATAATCGCCCTGAGCAAAGACC
binding signal (log2FC): 0.145
//
CHAIN: CTCGAGGATATCAAGATCTGGCCTCGGCGTTTTACCTGGAACCTCTAGCTAGCCGACTCACTATAGGGATAATCGCCCTGAGCAAAGACC
binding signal (log2FC): -0.352
//
CHAIN: CTCGAGGATATCAAGATCTGGCCTCGGCCGCATCCGCGGAACCTCTAGCTAGCCGACTCACTATAGGGATAATCGCCCTGAGCAAAGACC
binding signal (log2FC): -0.957
//
CHAIN: CTCGAGGATATCAAGATCTGGCCTCGGCATTTTACGCGGAACCTCTAGCTAGCCGACTCACTATAGGGATAATCGCCCTGAGCAAAGACC
binding signal (log2FC): 2.16
//
CHAIN: CTCGAGGATATCAAGATCTGGCCTCGGCATTTTAGGCGGAACCTCTAGCTAGCCGACTCACTATAGGGATAATCGCCCTGAGCAAAGACC
binding signal (log2FC): -0.396

----------
STUDY_SYSTEM: pT7_6His-AlfaTag-HOXD13 (human, UniProt P35453 263-343)
EXPERIMENT_SUMMARY: PADIT-seq
REPORTED_CONDITIONS: dsDNA, one strand shown
Overview of reported binding signal across a group of sequences:
OBSERVATION_TYPE: binding signal (log2FC)

CHAIN: CTCGAGGATATCAAGATCTGGCCTCGGCGCGTACGCGGGAACCTCTAGCTAGCCGACTCACTATAGGGATAATCGCCCTGAGCAAAGACC
STUDY_SYSTEM: pT7_6His-AlfaTag-HOXD13 (human, UniProt P35453 263-343)
MEASUREMENT_UNIT: log2FC
READOUT_NUMBER: -1.05
//
CHAIN: CTCGAGGATATCAAGATCTGGCCTCGGCCTTTTAACTGGAACCTCTAGCTAGCCGACTCACTATAGGGATAATCGCCCTGAGCAAAGACC
STUDY_SYSTEM: pT7_6His-AlfaTag-HOXD13 (human, UniProt P35453 263-343)
MEASUREMENT_UNIT: log2FC
READOUT_NUMBER: 1.7
//
CHAIN: CTCGAGGATATCAAGATCTGGCCTCGGCCTTTTACCTGGAACCTCTAGCTAGCCGACTCACTATAGGGATAATCGCCCTGAGCAAAGACC
STUDY_SYSTEM: pT7_6His-AlfaTag-HOXD13 (human, UniProt P35453 263-343)
MEASUREMENT_UNIT: log2FC
READOUT_NUMBER: -0.0573
//
CHAIN: CTCGAGGATATCAAGATCTGGCCTCGGCCTTTTATGGGGAACCTCTAGCTAGCCGACTCACTATAGGGATAATCGCCCTGAGCAAAGACC
STUDY_SYSTEM: pT7_6His-AlfaTag-HOXD13 (human, UniProt P35453 263-343)
MEASUREMENT_UNIT: log2FC
READOUT_NUMBER: 3.37
